- Test system: Saccharomyces cerevisiae
- assay.explanation: transcriptional activation domain activity (GFP:mCherry ratio, weighted mean of sorted bins, harmonized to initial dataset scale) (arbitrary fluorescence ratio units); higher = stronger transcriptional activation
- applied.conditions: beta-estradiol 1 µM; induction time 4 h
measured.attribute: transcriptional activation domain activity
Answers are plain numbers.

Some solved cases for reference:
>>> print(df.to_string())
                             chain_sequence            assayed_system  measurement
0  LLILSLTVPFLHGLLRPHTHYVHLLVVVFLTFSPFFVILTISYEGLFYVIFCI  Saccharomyces cerevisiae        57900
1  PFTIVFILPFDFSSTQYRICEHNCDAPLGYISSQFTRRLWVVLYWTMYLLTWL  Saccharomyces cerevisiae        67000
2  MCLTGLWWFVCKFAFSFFLSAGLFFLIHPPLFLILLPLSSFFLFLSLAAASGF  Saccharomyces cerevisiae        31400
3  CKWLGFILLFVPVILSFLFPFLFYSFFSSFVFFFFFFFFVMAVFLFLQSPRSF  Saccharomyces cerevisiae        23300
4  YQNLYFIQLLVSCWALIGMLHLSLNRFEHLHFMVYMRPSGSKYLVAISWCLFL  Saccharomyces cerevisiae        66900

Please give transcriptional activation domain activity, item by item, for the list that follows.
1. SRRAHSSDRDEARSARRRGRDRSRSRNRSRSWSRHRHRHRSHSRDAPAAAAAR
2. VRLLIRCTRRSLYFWACLCCSWGIILHSLFITLANFNVLQSYGSIVIIHLTWC
3. MCAASSEGASLSPASSLQRGKACLACRRRKMRCDGARPTCGQCVRGNRVDDCE
4. YSASPLEGDSSLPSSLPSSTEDCLLLSLENTITVIAGNQRQAYDSTSSTEEGT

// result
1: 22600; 2: 74300; 3: 21200; 4: 16100

====

- System: Saccharomyces cerevisiae
- assay.explanation: transcriptional activation domain activity (GFP:mCherry ratio, weighted mean of sorted bins, harmonized to initial dataset scale) (arbitrary fluorescence ratio units); higher = stronger transcriptional activation
- applied.conditions: beta-estradiol 1 µM; induction time 4 h
Entries get a class label from measured transcriptional activation domain activity. See ranges: lowest (below 40000), middle (40000 to below 50000), highest (50000 or more)

In [3]: df
Out[3]:
                             chain_sequence            assayed_system  assigned_class
0  YSLNIFIFGNGRYGSTIQANLHGLRSFIRLVPKDCLALIRHLHLHIFFSGLPD  Saccharomyces cerevisiae         highest

// query Assign a category based on measured transcriptional activation domain activity for MGGFVYAYCSAQSLTLLPWLLFFDYLFFSFLCILNYISFLFFYFLGFEVGWVI and give only the class name.
// result highest

// query Assign a category based on measured transcriptional activation domain activity for KRGEGEAGKESGRQRRSGSAGERAGRRGEGSKEGAEGESEASREKGNKRNDEE and give only the class name.
// result lowest

// query Assign a category based on measured transcriptional activation domain activity for MVVIWGLDLKEMQWWKFKGSYMFNQTYHLRRTKMIVYQIAMIFMVCSESVGTA and give only the class name.
// result lowest

====

What transcriptional activation domain activity was measured for each of the following?
- Tested on: Saccharomyces cerevisiae
- assay.explanation: transcriptional activation domain activity (GFP:mCherry ratio, weighted mean of sorted bins, harmonized to initial dataset scale) (arbitrary fluorescence ratio units); higher = stronger transcriptional activation
- applied.conditions: beta-estradiol 1 µM; induction time 4 h
Answers are plain numbers.

Some solved cases for reference:
>>> print(df.to_string())
                             chain_sequence            assayed_system  measurement
0  VQVVGVLCVGWSLKVWTMHLLGDGGVAVLVKGRTRTVPMAWEEWGAVVEVMRG  Saccharomyces cerevisiae        40300
1  FIDAAGKGGELRWNPHNKRYHLVGAEEGGKEDALSAPNKPTKPNPVLVCIYGQ  Saccharomyces cerevisiae        69000
2  FKSQLFCFYNLRLFVSCQPKHLNDLVDLLKKYHGSHVYQFVFTLSAFLERVAQ  Saccharomyces cerevisiae        48800
3  MGLGVLYHLSLLFPFLFFFLSLLFFSLLSSSFFLLWLFPISCLGFIVLFWTGS  Saccharomyces cerevisiae        22200
4  MDGVGLGSHRGSGSSSSSSSSAADRAPRHSTRRKRGRESRGAVVVIAATNRPN  Saccharomyces cerevisiae        39200
5  MEILKLPFYILHVLPLPIRGALATLTPLVRFHTVVVSLSCLLSLRCIYLLFFH  Saccharomyces cerevisiae        75300

// next item, transcriptional activation domain activity requested
Entry MLSRCFKCPYGAWGVIIFFIFFFYFFLNIPFFFVYYYLLFFVCSFFSFFFHFI , transcriptional activation domain activity reported as 38600

====

- Tested on: Saccharomyces cerevisiae
- assay.explanation: transcriptional activation domain activity (GFP:mCherry ratio, weighted mean of sorted bins, harmonized to initial dataset scale) (arbitrary fluorescence ratio units); higher = stronger transcriptional activation
- applied.conditions: beta-estradiol 1 µM; induction time 4 h
measured.attribute: transcriptional activation domain activity

Some solved cases for reference:
                             chain_sequence            assayed_system  measurement
0  IKPEIMGLLEIHRSIAQDIGVSLLTELINPNVSIGKMLRNCITVFTLINTLRH  Saccharomyces cerevisiae        77500
1  AAARAPHVAPAPPDARPKSKKRKSSSPDDGRAPAKSRRLSPARAAPAKPKHRR  Saccharomyces cerevisiae        12300
2  GVEGQGKRTRAGKKRRIVLRERQRKRVKEEEERKKKGEEKEGREREKRVRRNR  Saccharomyces cerevisiae        46700
3  MLARFKWSMWRMSLVRALRASLNITLFFYFLFPPRYSYVFLFLFLSFFLFFFS  Saccharomyces cerevisiae        32500
4  MRWTSTISFFLLPLGFFFSFHPFHIPFSTFLVSFEICIFFLSFFFSFLPIFLF  Saccharomyces cerevisiae        58500

Please give transcriptional activation domain activity, item by item, for the list that follows.
1. PIHALFCTHIWLLFKLCILCVLFLLSLLCLYGGSMINTGLRIILHLLLCVYLF
2. MFFIFFFWFVFFPLTIFLLSSSIFGFLFSSSFLFYYYYFFLWGGRPFIFPFYS
3. MCCEAEWKREVVQDHKFDFINVSEFHRTDILTRLKYVWKYILILKAFAVMGLD
4. AADQVQDTAGQAVNQVGDTAGKALGGLTGGGKKEQGGEEEGGGEQLRLRLELN

// result
81800
33300
53700
35700

====

- Test system: Saccharomyces cerevisiae
- assay.explanation: transcriptional activation domain activity (GFP:mCherry ratio, weighted mean of sorted bins, harmonized to initial dataset scale) (arbitrary fluorescence ratio units); higher = stronger transcriptional activation
- applied.conditions: beta-estradiol 1 µM; induction time 4 h
# label = Fulfilled if transcriptional activation domain activity >= 50000 else Not fulfilled

Reference set, count: 5
>>> print(df.to_string())
                             chain_sequence  assigned_class
0  MIASHPSPFLSRLFGLPLLFFSSFIEVSLFFLFFLPSLRFLFFFFPSLALFFF   Not fulfilled
1  AYANDKESTREKFILVVWIGPQCKVMRKAKVSVHAADVKTTLRVYSIEVAARE   Not fulfilled
2  PNRRSMGKQDPYCAARLGKEAKKTATDRRGGQTPKWDQELRFTVHDSPDYHQL       Fulfilled
3  RTFLRWTLDTLAQCTTFEVMWLILTGVIQDYIDEYKRNRTLTKLLIEALIKSY       Fulfilled
4  ICGMWLRGSFTFLSTVKDPHVLLRTMIKRDPELGFLWVGAFITGCHDRALREG       Fulfilled

// query Please indicate if the recorded transcriptional activation domain activity for LQAARSADIAISQFRYLKKLLLVHGAWSYRRLATLILYSFYKNVVLYMTQFWF meets or exceeds 50000.
// result Fulfilled

// query Please indicate if the recorded transcriptional activation domain activity for SQVAVSPGAVIEVNEEDAGEEQEQQQPARKRQRHRSKRQKLDAEQSAGQGGVV meets or exceeds 50000.
// result Not fulfilled

// query Please indicate if the recorded transcriptional activation domain activity for HIFYTQLYPAYDLPKKLQEDTELETEQENQMLNQVGNINYTHDFSLSHEIDDL meets or exceeds 50000.
// result Fulfilled

// query Please indicate if the recorded transcriptional activation domain activity for PTLLVALLALLIPHILIFIAKKINTIMTLSALHDRLMIRYYKFLVINVLVFFC meets or exceeds 50000.
// result Not fulfilled

// query Please indicate if the recorded transcriptional activation domain activity for WGLIIGLVGLNAALIYIGWRYYEVYYFLLVLLSSNTILQTFMCFCIMLHWFCT meets or exceeds 50000.
// result Not fulfilled

// query Please indicate if the recorded transcriptional activation domain activity for MGSGFCNGVFFYYLFFFFISLCVILSSFLLFFFSLPLFLGGLFFSTFLFLDAR meets or exceeds 50000.
// result Fulfilled

// query Please indicate if the recorded transcriptional activation domain activity for HAVTYWMCLELTIHLFYTFNRRSTLYFWSILVSICSIISMTILLELIIFVYPL meets or exceeds 50000.
// result Fulfilled

// query Please indicate if the recorded transcriptional activation domain activity for SDSGSEVDEKNNKNEKIDSESIKNNESKDDIPSKDENSSNDNREISKTDEEGH meets or exceeds 50000.
// result Not fulfilled

Entry source: the supplement of paper PMC12636428
